# maps each entry to its logP*
- Test Method Notes: logP determination by HPLC (EEC directive 79/831 Annex V. A8)
- Format: physicochemical
- Setup Conditions: HPLC gradient method, acetonitrile/0.1% aqueous phosphoric acid; Table 1
Endpoint: logP*

CC(C)CNNc1c(-c2c(Cl)c(F)cc(C(F)(F)F)c2Cl)c(Cl)nc2ncnn12 [Example 44]: 3.89
CON(C)c1c(-c2c(F)cccc2F)c(Cl)nc2ncnn12 [Example 28]: 2.43
CC(C)CN(N)c1c(-c2cc(C(F)(F)F)ccc2C(F)(F)F)c(Cl)nc2ncnn12 [Example 137]: 3.57
CC1(NNc2c(-c3c(F)cc(F)cc3F)c(Cl)nc3ncnn23)CCCCC1 [Example 27]: 3.68

###

- Test Method Notes: logP determination by HPLC (EEC directive 79/831 Annex V. A8)
- Format: physicochemical
- Setup Conditions: HPLC gradient method, acetonitrile/0.1% aqueous phosphoric acid; Table 1
Endpoint: logP*

CC(C)CN(N)c1c(-c2cccc(C(F)(F)F)c2Cl)c(Cl)nc2ncnn12: 3.45
CC(C)CN(N)c1c(-c2c(F)cccc2F)c(Cl)nc2ncnn12: 2.72
Fc1ccccc1-c1c(Cl)nc2ncnn2c1NOCc1ccc(C(F)(F)F)cc1: 3.31
CCC(C)NNc1c(-c2c(Cl)cccc2Cl)c(Cl)nc2ncnn12 (stereo not drawn): 3.14
Clc1cccc(Cl)c1-c1c(Cl)nc2ncnn2c1NNC1CCCC1: 3.21
Fc1ccccc1-c1c(Cl)nc2ncnn2c1NOCc1ccc(Cl)cc1: 3.16
Fc1ccc(CONc2c(-c3c(F)cccc3F)c(Cl)nc3ncnn23)cc1: 2.86
Fc1cccc(F)c1-c1c(Cl)nc2ncnn2c1NOCc1c(Cl)cccc1Cl: 3.2
Fc1c(F)c(F)c(-c2c(Cl)nc3ncnn3c2NOCc2c(Cl)cccc2Cl)c(F)c1F: 3.65
Fc1cc(F)c(-c2c(Cl)nc3ncnn3c2NNCC(F)(F)F)c(F)c1: 2.47
CC(C)CN(N)c1c(-c2ccc(F)cc2Cl)c(Cl)nc2ncnn12: 3.15
CC=NN(CC1CC1(Cl)Cl)c1c(-c2c(F)cc(F)cc2F)c(Cl)nc2ncnn12 (stereo not drawn): 3.72
NN(CC1CC1(Cl)Cl)c1c(-c2c(F)cccc2Cl)c(Cl)nc2ncnn12 (stereo not drawn): 3.11
C=CCONc1c(-c2c(F)c(F)c(F)c(F)c2F)c(Cl)nc2ncnn12: 2.89
NN(c1c(-c2c(F)cc(F)cc2F)c(Cl)nc2ncnn12)C1CCCCC1: 3.33
C#CCN(N)c1c(-c2c(F)cc(F)cc2F)c(Cl)nc2ncnn12: 2.22
CN(O)c1c(-c2c(F)cc(F)cc2F)c(Cl)nc2ncnn12: 1.99
CC(C)CONc1c(-c2c(F)c(F)c(F)c(F)c2F)c(Cl)nc2ncnn12: 3.42

###

- Test Method Notes: logP determination by HPLC (EEC directive 79/831 Annex V. A8)
- Type: physicochemical
- Setup Conditions: HPLC gradient method, acetonitrile/0.1% aqueous phosphoric acid; Table 1
# maps each entry to its logP*
Endpoint: logP*

CON(C)c1c(-c2c(F)c(F)c(F)c(F)c2F)c(Cl)nc2ncnn12: 3.06
CON(CC(C)C)c1c(-c2c(F)cc(F)cc2F)c(Cl)nc2ncnn12: 3.78
CC(C)CONc1c(-c2ccccc2F)c(Cl)nc2ncnn12: 2.79
CON(C)c1c(-c2c(F)cc(F)cc2F)c(Cl)nc2ncnn12: 2.63
CC(C)CN(N)c1c(-c2ccc(C(F)(F)F)cc2F)c(Cl)nc2ncnn12: 3.43
